Test system: NCI-H322M lung
method-summary: NCI-60 one-dose screen, 48 h
condition-description: 10 µM unless noted
Compounds without any hit were thinned out: in the full panel of roughly 83,000, 20% have a hit. The source made the active and inactive calls. Rule for the calls: active = growth percent below 10; inactive = the rest.
Thanks in advance; please answer with one of these: active, inactive

query: What was the test verdict on NCCCNc1nc2ccccc2c2c(=O)c3cc(Cl)ccc3sc12 ?
result: inactive

query: Cc1ccc(S(=O)(=O)OCC#CCOS(=O)(=O)c2ccc(C)cc2)cc1 ?
result: inactive

query: C#Cc1cccc(Nc2ncnc3cc(NC(=O)CCl)ccc23)c1 ?
result: active

query: C[C@@H]1CN(c2cnc(C(=O)Nc3cc(F)cc4cccnc34)cn2)C[C@H](C)N1 ?
result: inactive

query: Cc1ccc2c(c1)nc(C)n2-c1ncnc2c1CC(C)c1cc(O)ccc1N2C (configuration not stated) ?
result: inactive

query: CN1CCOCCN(C)Cc2ccc3ccc(cc3c2)CN(C)CCOCCN(C)Cc2ccc3ccc(cc3c2)C1 ?
result: inactive

query: Nc1c(C(=O)Nc2cccc3ncccc23)sc2nc3c(cc12)CN(Cc1ccccc1)CC3 ?
result: inactive

query: Nc1nc2ccccc2c2c(=O)c3cc(Cl)ccc3sc12 ?
result: inactive

query: Clc1cccc(C2Cc3cnccc3-c3[nH]c4ccncc4c32)c1 (configuration not stated) ?
result: inactive

query: Cc1ncc(C(=O)Nc2ccc(CN3CCN(C)CC3)c(C(F)(F)F)c2)cc1C#Cc1cnc(N)c2ccc(C#N)cc12 ?
result: inactive

query: O=C1C=C(SCCO)C(=O)c2ccccc21 ?
result: inactive

query: Cc1cc(=O)oc2cc(Oc3nc(Br)cn4c(Br)cnc34)ccc12 ?
result: inactive

query: O=C(c1ccc(Br)cc1)C(Br)C(c1ccc(Cl)cc1)C(c1ccccc1)[N+](=O)[O-] (configuration not stated) ?
result: inactive

query: C#Cc1cccc(NC(=O)C2CCCCN2C(=O)CCl)c1 (configuration not stated) ?
result: inactive

query: COc1ccc(-c2nc3ccc(C)cc3c3c2c(=O)n(C)c(=O)n3C)cc1OC ?
result: inactive

query: CC(C)C1C2=C(NCCN1C(=O)c1ccncc1)C(C)(C)N(Cc1ccccc1)C2=O (configuration not stated) ?
result: inactive

query: CCOC(=O)c1ccc[nH]1 ?
result: inactive

query: C[C@H](c1nc2ccc(C#N)cc2[nH]1)[C@H]1CC[C@H]2[C@@H]3CCC4=CC(=O)CC[C@]4(C)[C@H]3CC[C@]12C ?
result: inactive

query: Cc1c(C(C)(C)O)cn2ncnc(Oc3ccc(NC(=O)Nc4ccc(Cl)c(C(F)(F)F)c4)c(F)c3)c12 ?
result: inactive

query: Cc1sc2nc(NCCN)[nH]c(=O)c2c1C ?
result: inactive

query: CN(C)CCC(=O)C1CC1 ?
result: inactive

query: Cc1c(O)cc(-c2cnc(N/N=C/c3ccccc3)s2)c(O)c1C ?
result: inactive

query: OC1(c2ccccc2)c2ccccc2N(c2ccccc2)c2ccc(Cl)cc21 (configuration not stated) ?
result: active

query: CCOC(=O)C/C(=N\Nc1cc(=O)[nH]c2ccc(OC)cc12)C(=O)OCC ?
result: inactive

query: COc1ccc(-c2nc(SCC(=O)Nc3nc4ccc(C)cc4s3)[nH]c(=O)c2C#N)cc1OC ?
result: inactive

query: C=CC(=O)Nc1cccc(Oc2nccc(Nc3nnc(-c4ccc(Br)cc4)s3)n2)c1 ?
result: inactive

query: COc1cc(OC)c2c(=O)c3c(CC=C(C)C)cc(OC)c(O)c3oc2c1 ?
result: inactive

query: CN(C)C1CN(C(=O)c2cc(-c3ccc4ncnc(N5CCc6cc(F)c(Cl)cc65)c4c3)cnc2N)C1 ?
result: active

query: COc1ccc(/C=C/C(c2cc(OC)c(OC)c(OC)c2)n2cncn2)cc1O (configuration not stated) ?
result: inactive

query: O=c1ccc2ccc(OCCN3CCCCC3)cc2o1 ?
result: inactive

query: COc1ccc(OC)c(Nc2nnc(-c3cc(OC)c(OC)c(OC)c3)o2)c1 ?
result: inactive

query: COc1ccccc1/C=C/C(=O)Nc1ccc(F)cc1 ?
result: inactive

query: Cc1cc(Cl)nc(N2CCN(CCNc3ccnc4cc(Cl)ccc34)CC2)n1 ?
result: inactive

query: Clc1ccc(-c2cc(-c3ccccc3)nc(N3CCN(CCCNc4ccnc5cc(Cl)ccc45)CC3)n2)cc1 ?
result: inactive

query: CCN(CC)CCN1C(=O)c2c(c3c4ccccc4[nH]c3c3ccc4ccccc4c23)C1=O ?
result: inactive

query: Cc1cc(N2CCN(CC(=O)Nc3ccc4c(ccn4Cc4ccccc4)c3)CC2)nc(N2CCOCC2)n1 ?
result: inactive

query: COC(=O)c1ccc2cc(OC)c(OC)cc2c1 ?
result: inactive

query: COc1ccc(C(c2cc(OC)c(OC)c(OC)c2)N2CCCCC2)cc1 (configuration not stated) ?
result: inactive

query: COc1ccc2c(c1)c(-c1nc(-c3ccc4ccccc4c3)cs1)cn2C ?
result: inactive

query: O=C(Nc1cc(Cl)cc(Cl)c1)Oc1c(Cl)c(Cl)c(Cl)c(Cl)c1Cl ?
result: inactive

query: Cc1[nH]n(-c2cccc(Cl)c2)c(=O)c1/C=C1\C=c2ccccc2=CC1=O ?
result: inactive

query: COC(=O)c1c(C)nc(C)c2c1C(=O)C=C(NCc1ccccc1)C2=O ?
result: inactive
